# solubility per entry
- method: Solubility of compound in 0.1 M HCl
- Assay type: physicochemical
readout label: solubility (µg/mL)

[[record]]
compound = "FC1CCN(CCOc2ccc(C3CCC4(CC3)OOC3(OO4)C4CC5CC(C4)CC3C5)cc2)CC1 (centres undefined)"
readout_label = "solubility"
unit_string = "µg/mL"
numeric_result = 1790

[[record]]
compound = "FC1CCN(Cc2ccc([C@@H]3CCCC4(C3)OOC3(OO4)C4CC5CC(C4)CC3C5)cc2)CC1 (some centres undefined)"
readout_label = "solubility"
unit_string = "µg/mL"
numeric_result = 95

[[record]]
compound = "c1cc([C@H]2CCCC3(C2)OOC2(OO3)C3CC4CC(C3)CC2C4)ccc1CN1CCOCC1 (some centres undefined)"
readout_label = "solubility"
unit_string = "µg/mL"
numeric_result = 165

[[record]]
compound = "FC1CCN(Cc2ccc(C3CCC4(CC3)OOC3(OO4)C4CC5CC(C4)CC3C5)cc2)CC1 (centres undefined)"
readout_label = "solubility"
unit_string = "µg/mL"
numeric_result = 101

[[record]]
compound = "c1cc([C@H]2CCCC3(C2)OOC2(OO3)C3CC4CC(C3)CC2C4)ccc1OCCN1CCOCC1 (some centres undefined)"
readout_label = "solubility"
unit_string = "µg/mL"
numeric_result = 284

[[record]]
compound = "c1cc(C2CCC3(CC2)OOC2(OO3)C3CC4CC(C3)CC2C4)ccc1CN1CCOCC1 (centres undefined)"
readout_label = "solubility"
unit_string = "µg/mL"
numeric_result = 21.2

[[record]]
compound = "c1cc([C@@H]2CCCC3(C2)OOC2(OO3)C3CC4CC(C3)CC2C4)ccc1CN1CCOCC1 (some centres undefined)"
readout_label = "solubility"
unit_string = "µg/mL"
numeric_result = 188

[[record]]
compound = "FC1CCN(Cc2ccc([C@H]3CCCC4(C3)OOC3(OO4)C4CC5CC(C4)CC3C5)cc2)CC1 (some centres undefined)"
readout_label = "solubility"
unit_string = "µg/mL"
numeric_result = 60

[[record]]
compound = "FC1CCN(CCOc2ccc([C@H]3CCCC4(C3)OOC3(OO4)C4CC5CC(C4)CC3C5)cc2)CC1 (some centres undefined)"
readout_label = "solubility"
unit_string = "µg/mL"
numeric_result = 1270


###

# AUC(0-inf) per entry
- method: AUC (infinity) in Sprague-Dawley rat at 10 mg/kg, po administered as single dose
- Type: ADME, organism-based
- Design: time infinity, route oral, dose 10 mg/kg
- setup conditions: in vivo
readout label: AUC(0-inf) (ng·h/mL)

[[record]]
molecule = "c1cc(C2CCC3(CC2)OOC2(OO3)C3CC4CC(C3)CC2C4)ccc1CN1CCOCC1 (configuration not stated)"
readout_label = "AUC(0-inf)"
unit_string = "ng·h/mL"
numeric_result = 608

[[record]]
molecule = "c1cc([C@@H]2CCCC3(C2)OOC2(OO3)C3CC4CC(C3)CC2C4)ccc1CN1CCOCC1 (some centres not stated)"
readout_label = "AUC(0-inf)"
unit_string = "ng·h/mL"
numeric_result = 1440


###

- method: Intrinsic clearance in mouse liver microsome by LC-MS/MS analysis
- Format: ADME, microsomes
- setup conditions: liver microsomes, read-out: CLH
readout label: microsomal CLint (µL/min/mg)

[[record]]
compound = "NC1CCN(C(=O)O[C@@H]2CCC[C@]3(C2)OOC2(O3)C3CC4CC(C3)CC2C4)CC1 (stereo partly specified)"
unit_string = "µL/min/mg"
numeric_result = 155


###

# pH per entry
- method: Solubility of the compound in FaSSIF assessed as equilibrium pH
- Format: physicochemical
- setup conditions: simulated gi fluid
readout label: pH

[[record]]
compound = "c1cc([C@@H]2CCCC3(C2)OOC2(OO3)C3CC4CC(C3)CC2C4)ccc1CN1CCOCC1 (stereo not given in full)"
readout_label = "pH"
numeric_result = 6.43

[[record]]
compound = "FC1CCN(Cc2ccc([C@@H]3CCCC4(C3)OOC3(OO4)C4CC5CC(C4)CC3C5)cc2)CC1 (stereo not given in full)"
readout_label = "pH"
numeric_result = 6.43

[[record]]
compound = "FC1CCN(Cc2ccc(C3CCC4(CC3)OOC3(OO4)C4CC5CC(C4)CC3C5)cc2)CC1 (stereo not given)"
readout_label = "pH"
numeric_result = 6.1

[[record]]
compound = "FC1CCN(Cc2ccc([C@H]3CCCC4(C3)OOC3(OO4)C4CC5CC(C4)CC3C5)cc2)CC1 (stereo not given in full)"
readout_label = "pH"
numeric_result = 6.44

[[record]]
compound = "FC1CCN(CCOc2ccc([C@H]3CCCC4(C3)OOC3(OO4)C4CC5CC(C4)CC3C5)cc2)CC1 (stereo not given in full)"
readout_label = "pH"
numeric_result = 6.43

[[record]]
compound = "c1cc([C@H]2CCCC3(C2)OOC2(OO3)C3CC4CC(C3)CC2C4)ccc1CN1CCOCC1 (stereo not given in full)"
readout_label = "pH"
numeric_result = 6.42

[[record]]
compound = "FC1CCN(CCOc2ccc(C3CCC4(CC3)OOC3(OO4)C4CC5CC(C4)CC3C5)cc2)CC1 (stereo not given)"
readout_label = "pH"
numeric_result = 6.42

[[record]]
compound = "c1cc(C2CCC3(CC2)OOC2(OO3)C3CC4CC(C3)CC2C4)ccc1CN1CCOCC1 (stereo not given)"
readout_label = "pH"
numeric_result = 6.1

[[record]]
compound = "c1cc([C@H]2CC[C@]3(CC2)OO[C@]2(O3)C3CC4CC(C3)CC2C4)ccc1OCCN1CCOCC1 [ARTEFENOMEL]"
readout_label = "pH"
numeric_result = 6.6

[[record]]
compound = "c1cc([C@H]2CCCC3(C2)OOC2(OO3)C3CC4CC(C3)CC2C4)ccc1OCCN1CCOCC1 (stereo not given in full)"
readout_label = "pH"
numeric_result = 6.42


###

# solubility per entry
- method: Aqueous solubility of compound in PBS at pH 7.4
- Assay type: physicochemical
readout label: solubility (µM)

[[record]]
molecule = "FC1CCN(Cc2ccc([C@@H]3CCCC4(C3)OOC3(OO4)C4CC5CC(C4)CC3C5)cc2)CC1 (stereo partly specified)"
unit_string = "µM"
qual = "="
numeric_result = 0.1

[[record]]
molecule = "c1cc([C@H]2CCCC3(C2)OOC2(OO3)C3CC4CC(C3)CC2C4)ccc1CN1CCOCC1 (stereo partly specified)"
unit_string = "µM"
qual = "="
numeric_result = 0.1

[[record]]
molecule = "c1cc([C@@H]2CCCC3(C2)OOC2(OO3)C3CC4CC(C3)CC2C4)ccc1CN1CCOCC1 (stereo partly specified)"
unit_string = "µM"
qual = "="
numeric_result = 0.1

[[record]]
molecule = "c1cc([C@H]2CC[C@]3(CC2)OO[C@]2(O3)C3CC4CC(C3)CC2C4)ccc1OCCN1CCOCC1"
unit_string = "µM"
qual = "="
numeric_result = 0.85

[[record]]
molecule = "FC1CCN(Cc2ccc([C@H]3CCCC4(C3)OOC3(OO4)C4CC5CC(C4)CC3C5)cc2)CC1 (stereo partly specified)"
unit_string = "µM"
qual = "<"
numeric_result = 0.1

[[record]]
molecule = "FC1CCN(CCOc2ccc([C@@H]3CCCC4(C3)OOC3(OO4)C4CC5CC(C4)CC3C5)cc2)CC1 (stereo partly specified)"
unit_string = "µM"
qual = "="
numeric_result = 0.1

[[record]]
molecule = "c1cc([C@H]2CCCC3(C2)OOC2(OO3)C3CC4CC(C3)CC2C4)ccc1OCCN1CCOCC1 (stereo partly specified)"
unit_string = "µM"
qual = "="
numeric_result = 0.1

[[record]]
molecule = "c1cc([C@@H]2CCCC3(C2)OOC2(OO3)C3CC4CC(C3)CC2C4)ccc1OCCN1CCOCC1 (stereo partly specified)"
unit_string = "µM"
qual = "="
numeric_result = 0.1

[[record]]
molecule = "FC1CCN(CCOc2ccc(C3CCC4(CC3)OOC3(OO4)C4CC5CC(C4)CC3C5)cc2)CC1 (stereo unspecified)"
unit_string = "µM"
qual = "="
numeric_result = 0.1

[[record]]
molecule = "c1cc(C2CCC3(CC2)OOC2(OO3)C3CC4CC(C3)CC2C4)ccc1CN1CCOCC1 (stereo unspecified)"
unit_string = "µM"
qual = "="
numeric_result = 0.106

[[record]]
molecule = "FC1CCN(CCOc2ccc([C@H]3CCCC4(C3)OOC3(OO4)C4CC5CC(C4)CC3C5)cc2)CC1 (stereo partly specified)"
unit_string = "µM"
qual = "="
numeric_result = 0.1


###

- method: Intrinsic clearance in rat hepatocytes measured per 10^6 cells up to 120 mins by LC-MS analysis
- Type: ADME, cell-based, Hepatocyte
- setup conditions: read-out: CLH
readout label: hepatocyte CLint

[[record]]
molecule = "c1cc([C@H]2CCCC3(C2)OOC2(OO3)C3CC4CC(C3)CC2C4)ccc1OCCN1CCOCC1 (some centres undefined)"
result = "49.2 µL/min/1e6 cells"

[[record]]
molecule = "FC1CCN(Cc2ccc([C@H]3CCCC4(C3)OOC3(OO4)C4CC5CC(C4)CC3C5)cc2)CC1 (some centres undefined)"
result = "30.7 µL/min/1e6 cells"

[[record]]
molecule = "FC1CCN(CCOc2ccc(C3CCC4(CC3)OOC3(OO4)C4CC5CC(C4)CC3C5)cc2)CC1 (centres undefined)"
result = "12 µL/min/1e6 cells"

[[record]]
molecule = "FC1CCN(Cc2ccc([C@@H]3CCCC4(C3)OOC3(OO4)C4CC5CC(C4)CC3C5)cc2)CC1 (some centres undefined)"
result = "19.2 µL/min/1e6 cells"

[[record]]
molecule = "FC1CCN(CCOc2ccc([C@@H]3CCCC4(C3)OOC3(OO4)C4CC5CC(C4)CC3C5)cc2)CC1 (some centres undefined)"
result = "13.5 µL/min/1e6 cells"

[[record]]
molecule = "FC1CCN(CCOc2ccc([C@H]3CCCC4(C3)OOC3(OO4)C4CC5CC(C4)CC3C5)cc2)CC1 (some centres undefined)"
result = "16.7 µL/min/1e6 cells"

[[record]]
molecule = "c1cc([C@H]2CCCC3(C2)OOC2(OO3)C3CC4CC(C3)CC2C4)ccc1CN1CCOCC1 (some centres undefined)"
result = "50.2 µL/min/1e6 cells"

[[record]]
molecule = "c1cc([C@@H]2CCCC3(C2)OOC2(OO3)C3CC4CC(C3)CC2C4)ccc1OCCN1CCOCC1 (some centres undefined)"
result = "21.6 µL/min/1e6 cells"

[[record]]
molecule = "c1cc([C@@H]2CCCC3(C2)OOC2(OO3)C3CC4CC(C3)CC2C4)ccc1CN1CCOCC1 (some centres undefined)"
result = "26.2 µL/min/1e6 cells"


Reference source: ChEMBL document CHEMBL4834468
